Test system: CCRF-CEM leukemia
Assay Remarks: NCI tumour cell line growth inhibition, 48 h
# maps each entry to its GI50

Examples with their reported GI50 follow.
Molecule: O=C(CF)N(O)c1ccc(/C=C/c2ccccc2)cc1
Tested System: CCRF-CEM leukemia
GI50: 2160 nM

Molecule: O=C(Nc1cccc(Oc2nnc(Cl)c3ccccc23)c1)Nc1ccc(Cl)c(C(F)(F)F)c1
Tested System: CCRF-CEM leukemia
GI50: 208 nM

Molecule: O=C(Nc1ccc(Oc2ccc3nc(NC(=O)c4ccccc4)[nH]c3c2)cc1)Nc1cc(C(F)(F)F)ccc1F
Tested System: CCRF-CEM leukemia
GI50: 657 nM

Proceed to the following item.
// COC(=O)[C@]12CC[C@@H](C)[C@H](C)[C@@H]1C1=CC[C@@H]3[C@@]4(C)C(C=O)=C[C@@](C)(COC(=O)c5ccco5)[C@@H]4C(=O)C[C@@]3(C)[C@]1(C)CC2 : GI50 value = 2420 nM

---

System: MALME-3M melanoma
Assay Remarks: NCI tumour cell line growth inhibition, 48 h
Metric Name: TGI

Examples with their reported TGI follow.
Compound: O=C(O)c1ccccc1CC1Cc2ccc3c(c2C1=O)CCC3 (configuration not stated)
Value Reported: > 100 µM
//
Compound: Nc1ccc(N=Nc2ccc(-c3ccc(O)cc3)cc2)c2ccc(S(=O)(=O)O)cc12
Value Reported: > 100 µM
//
Compound: Cc1n[nH]c(=O)n1/N=C/c1cccs1
Value Reported: > 100 µM
//
Compound: COc1cccc2c1-c1c(c3ccc([N+](=O)[O-])cc3c(=O)n1CCCCl)C2=O
Value Reported: > 50 µM
//
Compound: Nc1c(-c2nc3ccccc3o2)sc(=S)n1-c1ccc(Cl)cc1
Value Reported: 56.5 µM
//
Compound: NNC(=S)N/N=C(/C(=O)Nc1cc(Cl)ccc1Cl)C1C(=O)Nc2ccccc2S1=O (configuration not stated)
Value Reported: > 100 µM
//
Compound: CC(C)(C)CC(C)(C)c1cc2c(O)c(c1)Cc1cc(C(C)(C)CC(C)(C)C)cc(c1O)Cc1cc(C(C)(C)CC(C)(C)C)cc(c1O)Cc1cc(C(C)(C)CC(C)(C)C)cc(c1O)Cc1cc(C(C)(C)CC(C)(C)C)cc(c1O)Cc1cc(C(C)(C)CC(C)(C)C)cc(c1O)C2
Value Reported: > 100 µM
//
Compound: COc1ccc2c(c1)[n+]([O-])c(-c1ccccc1)c(N)[n+]2[O-]
Value Reported: 47.2 µM

Proceed to the following item.
// O=C(Nc1ccc(Oc2ccc3nc(NC(=O)c4ccccc4)[nH]c3c2)cc1)Nc1cc(C(F)(F)F)ccc1F : TGI value = 11.9 µM

---

Test system: SNB-75 CNS
Assay Remarks: NCI tumour cell line growth inhibition, 48 h
Metric Name: TGI (µM)
Note: unit µM is implicit; provide only the numeric part.

Examples with their reported TGI follow.
Compound: CN1CCN(Cc2ccc(NC(=O)c3cncc(C#Cc4cncc5ncccc45)c3)cc2C(F)(F)F)CC1
TGI / µM: 18.8
--
Compound: c1ccc(-c2cc(C3CO3)c3ccccc3n2)cc1 (stereo not given)
TGI / µM: 62.6
--
Compound: CCCCCC[C@H]1CC(=O)C2CCCC[C@@]23CC[C@H](CCl)N13 (stereo not given in full) (tested in a mixture with another compound)
TGI / µM: 81.6
--
Compound: COC(=O)c1ccc(NC(=O)Nc2ccc3oc(=O)c4ccccc4c3c2)cc1
TGI / µM: 96.2
--
Compound: COc1ccc2nc3cc(Cl)ccc3c(N3CCN(c4ccnc(N5CCOCC5)n4)CC3)c2c1
TGI / µM: 65.3

// C1C[S][Ge]2([S]CCO1)[S]CCOCC[S]2 : TGI value = 48.4

---

Tested on: LOX IMVI melanoma
Assay Remarks: NCI tumour cell line growth inhibition, 48 h
Metric Name: TGI (µM)
Note: unit µM is implicit; provide only the numeric part.

Examples with their reported TGI follow.
Molecule: CCSC1(SCC)CC(Cc2ccc(OC)cc2)N(C=NC(C)(C)C)C1 (stereo not given)
TGI, µM: 32.4
--
Molecule: O=c1ssc(Cl)c1Nc1c(Cl)ssc1=O
TGI, µM: 31.2

Proceed to the following item.
// O=C(CN1CCN(c2ccc(Cl)cc2)CC1)N1CCN(c2nnc(-c3ccc(Cl)cc3)c(-c3ccc(Cl)cc3)n2)CC1 : TGI value = 76.4

---

Test system: U251 CNS
Assay Remarks: NCI tumour cell line growth inhibition, 48 h
Metric Name: TGI

Examples with their reported TGI follow.
Molecule: CCOC(=O)[C@H](O)[C@@H](O)C(=O)NCc1ccc(C(=O)c2ccccc2)cc1
Tested System: U251 CNS
TGI: > 100 µM

Molecule: CC(C)(C#N)c1cc(F)cc(C(=O)Nc2cc(Nc3ncccc3-c3ncnc4nc[nH]c34)ccc2F)c1
Tested System: U251 CNS
TGI: > 10 µM

Molecule: CN(C)CCNC(=O)Cn1cc([N+](=O)[O-])c(=O)c2ccccc21
Tested System: U251 CNS
TGI: > 100 µM

Molecule: O=C(O)CCC(=O)c1ccc2ccc3cccc4ccc1c2c34
Tested System: U251 CNS
TGI: > 100 µM

// CC(=O)c1cc2c(cc1Nc1c3ccccc3nc3occ(Cl)c13)OCO2 : TGI value = > 100 µM

---

# maps each entry to its TGI
System: PC-3 prostate
Assay Remarks: NCI tumour cell line growth inhibition, 48 h

Examples with their reported TGI follow.
Molecule: O=C(O)c1cc2cc(c1)N=Cc1ccccc1OCc1cccc(n1)COc1ccccc1C=N2
TGI: > 25 µM
//
Molecule: Cc1nc2ccccc2c(=O)n1NC(=O)c1ccc([N+](=O)[O-])cc1
TGI: > 100 µM
//
Molecule: Cn1nnnc1N/N=C/c1ccccc1
TGI: > 10 µM
//
Molecule: COc1cc(N/N=C/C#N)cc(OC)c1OC
TGI: > 10 µM
//
Molecule: O=c1cc(N2CCNCC2)oc2c(-c3ccccc3)cccc12
TGI: > 100 µM

Proceed to the following item.
// CCn1c(-c2ccc(F)cc2)nc2c1C(=O)c1ccccc1C2=O : TGI value = > 100 µM

---

Tested on: EKVX NSCLC
Assay Remarks: NCI tumour cell line growth inhibition, 48 h; in the data active means GI50 below about 0.43 µM; inactive means the rest
Valid outcomes are listed here; reply with one: TRUE = active, FALSE = inactive

Example entries begin here.
Compound: CN(C)c1ccc(/C=C(\C#N)c2nc3ccccc3n2C)cc1
Tested System: EKVX NSCLC
Answer Label: FALSE
//
Compound: CN(N=O)C(=O)N[C@@H](C=O)[C@@H](O)[C@H](O)[C@H](O)CO
Tested System: EKVX NSCLC
Answer Label: FALSE
//
Compound: C/C(=C\C1=C(Cl)C(=O)c2ccccc2C1=O)C(=O)O
Tested System: EKVX NSCLC
Answer Label: FALSE
//
Compound: COc1cccc2c1-c1c(c3ccc([N+](=O)[O-])cc3c(=O)n1CCCCl)C2=O
Tested System: EKVX NSCLC
Answer Label: FALSE
//
Compound: COc1ccc2c(c1)C(=O)C(=O)c1cc(O)c(OC)c(OC)c1-2
Tested System: EKVX NSCLC
Answer Label: FALSE

What call does the record list for CC/C(=C(/CC)c1ccc([O-])cc1)c1ccc([O-])cc1.CC/C(=C(\CC)c1ccc([O-])cc1)c1ccc([O-])cc1.O=C([CH-]C(=O)c1ccccc1)c1ccccc1.O=C([CH-]C(=O)c1ccccc1)c1ccccc1.O=C([CH-]C(=O)c1ccccc1)c1ccccc1.O=C([CH-]C(=O)c1ccccc1)c1ccccc1.[Ti+4].[Ti+4] ?
FALSE

What call does the record list for Oc1ccc(O)c(-c2cc(-c3ccccc3)nn2-c2ccccc2)c1 ?
FALSE

---

# maps each entry to its TGI
System: MCF7 breast
Assay Remarks: NCI tumour cell line growth inhibition, 48 h

Examples with their reported TGI follow.
Molecule: CCCCCC(=O)Nc1nc[nH]c1C(N)=O
TGI: > 100 µM
//
Molecule: O=C1C(c2c(O)[nH]c3ccc(S(=O)(=O)O)cc23)=Nc2ccc(Br)cc21
TGI: > 100 µM
//
Molecule: COC(=O)[C@]12CC[C@@H](C)[C@H](C)[C@@H]1C1=CC[C@@H]3[C@@]4(C)C(C=O)=C[C@@](C)(COC(=O)c5ccco5)[C@@H]4C(=O)C[C@@]3(C)[C@]1(C)CC2
TGI: 44.2 µM
//
Molecule: N#Cc1ccc(N2Cc3ccccc3OC3=C2C(=O)c2c(O)ccc(O)c2C3=O)cc1
TGI: 2.66 µM
//
Molecule: COc1ccc(C2=NN(C(=O)c3cc(OC)c(OC)c(OC)c3)C(c3ccc(Cl)cc3)C2)cc1OC (stereo not drawn)
TGI: 14.7 µM
//
Molecule: Cc1cc(=O)[nH]o1
TGI: > 100 µM
//
Molecule: CC(C)(C#N)c1cc(F)cc(C(=O)Nc2cc(Nc3ncccc3-c3ncnc4nc[nH]c34)ccc2F)c1
TGI: > 10 µM
//
Molecule: CN=C(NC#N)NCCSCc1nc[nH]c1C
TGI: > 100 µM
//
Molecule: O=C1Nc2ccccc2S/C1=C\c1ccccc1C(F)(F)F
TGI: > 100 µM
//
Molecule: N#Cc1c(NCCc2ccc(F)cc2)c2ccccc2n2c1nc1ccccc12
TGI: > 100 µM

// CN(C)c1ccc(/C=C2\N=C(c3ccc([N+](=O)[O-])cc3)OC2=O)cc1 : TGI value = > 100 µM
